test system: L. donovani (MHOM-ET-67/L82, axenically grown amastigotes); test: in vitro activity on L. donovani, serial dilution assay; type: cell-based, Leishmania donovani; conditions: Leishmania donovani, 72 h, axenic amastigotes; 72 h exposure; means of two independent assays ± deviation from the mean; read-out: IC50 L. donovani
Criterion: IC50 strictly less than 10 µM. Met: criterion met. Not met: criterion not met.

>  <compound>
C=C(C)[C@H](O)CC1=C(O)C(=O)c2c(O)ccc(O)c2C1=O

>  <classification>
criterion met

$$$$
>  <compound>
CC1(C)C=CC2=C(O1)C(=O)c1c(O)ccc(O[C@@H]3O[C@H](CO)[C@@H](O)[C@H](O)[C@H]3O)c1C2=O

>  <classification>
criterion not met

$$$$
>  <compound>
COc1ccc2cc1/C=C\NC(=O)[C@H](Cc1ccccc1)NC(=O)[C@@H]1[C@H](CCN1C(=O)[C@@H](NC(=O)C(C)N(C)C)C(C)C)O2 (stereo in doubt)

>  <classification>
criterion not met

$$$$
>  <compound>
CCCCCCCCCCCCCCCC(=O)OCC(O)COP(=O)([O-])OCC[N+](C)(C)C (stereo not drawn)

>  <classification>
criterion not met

$$$$
>  <compound>
CC(C)=CC[C@@]12O[C@@H]1C(=O)c1c(O)ccc(O[C@@H]3O[C@H](CO)[C@@H](O)[C@H](O)[C@H]3O)c1C2=O

>  <classification>
criterion met

$$$$
>  <compound>
C=C(C)[C@@H]1CC[C@]2(C(=O)O)CC[C@]3(C)[C@H](CC[C@@H]4[C@@]5(C)C[C@@H](O)[C@H](OC(=O)/C=C/c6ccc(O)cc6)C(C)(C)[C@@H]5CC[C@]43C)[C@@H]12 [Compound 18, 3-O-trans-p-coumaroylalphitolic acid]

>  <classification>
criterion met

$$$$
>  <compound>
CN[C@@H](Cc1ccccc1)C(=O)N[C@@H]1C(=O)N[C@@H](CC(C)C)C(=O)N/C=C\c2ccc(cc2)O[C@H]1C(C)C

>  <classification>
criterion not met

$$$$
>  <compound>
CC(C)=CC[C@@]12O[C@@H]1C(O)c1c(O)ccc(O)c1C2=O (stereo partly drawn)

>  <classification>
criterion not met

$$$$

[Q] Does CCC(C)[C@@H]1NC(=O)[C@@H](NC(=O)[C@H](Cc2ccccc2)N(C)C)[C@H](C(C)C)Oc2ccc(cc2)/C=C\NC1=O (stereo partly drawn) have IC50 strictly under 10 µM?
[A] criterion not met

[Q] Does CC(C)C[C@@H]1NC(=O)[C@@H](NC(=O)[C@H](Cc2c[nH]c3ccccc23)N(C)C)[C@H](C(C)C)Oc2ccc(cc2)/C=C\NC1=O have IC50 strictly under 10 µM?
[A] criterion not met

[Q] Does C=C(C)[C@@H]1CC[C@]2(C(=O)O)CC[C@]3(C)[C@H](CC[C@@H]4[C@@]5(C)[C@@H](C(=O)O)[C@H](O)C(C)(C)[C@@H]5CC[C@]43C)[C@@H]12 have IC50 strictly under 10 µM?
[A] criterion not met

[Q] Does C=C(C)C12CCC3(CCC4(C)C(CCC5C6(C)C(C(=O)O)C(O)C(C)(C)C6CCC54C)C31)C(=O)O2 (stereo not drawn) have IC50 strictly under 10 µM?
[A] criterion not met

* * *

test system: T. cruzi (Tulahuen C2C4, intracellular amastigotes); experiment: in vitro activity on T. cruzi, serial dilution assay; format: cell-based, Trypanosoma cruzi; conditions: Trypanosoma cruzi, TULAHUEN, 96 h, 96 h exposure; means of two independent assays ± deviation from the mean; read-out: IC50 T. cruzi
quantity measured: IC50

>  <compound>
COc1ccc2cc1/C=C\NC(=O)[C@H](Cc1ccccc1)NC(=O)[C@@H]1[C@H](CCN1C(=O)[C@@H](NC(=O)C(C)N(C)C)C(C)C)O2 (stereo in doubt)

>  <val>
> 50 µM

$$$$
>  <compound>
C=C(C)C1CCC2(C(=O)O)CCC3(C)C(CCC4C5(C)C(C(=O)O)C(OC(=O)c6ccccc6)C(C)(C)C5CCC43C)C12 (stereo not drawn)

>  <val>
43.8 µM

$$$$

[Q] Using the record for CC(C)=CC[C@@]12O[C@@H]1C(O)c1c(O)ccc(O)c1C2=O (stereo partly drawn) , state its measured IC50.
[A] > 50 µM
